- targetDesc: T1, Recombinant His-tagged human CD36.ECD protein (Sino Biological) (human, UniProt P16671 30-439)
- T1 construct: Bought protein; also called hCD36.ECD; hCD36; not shown: His tag
- T1 sequence (P16671 30-439 limits assumed): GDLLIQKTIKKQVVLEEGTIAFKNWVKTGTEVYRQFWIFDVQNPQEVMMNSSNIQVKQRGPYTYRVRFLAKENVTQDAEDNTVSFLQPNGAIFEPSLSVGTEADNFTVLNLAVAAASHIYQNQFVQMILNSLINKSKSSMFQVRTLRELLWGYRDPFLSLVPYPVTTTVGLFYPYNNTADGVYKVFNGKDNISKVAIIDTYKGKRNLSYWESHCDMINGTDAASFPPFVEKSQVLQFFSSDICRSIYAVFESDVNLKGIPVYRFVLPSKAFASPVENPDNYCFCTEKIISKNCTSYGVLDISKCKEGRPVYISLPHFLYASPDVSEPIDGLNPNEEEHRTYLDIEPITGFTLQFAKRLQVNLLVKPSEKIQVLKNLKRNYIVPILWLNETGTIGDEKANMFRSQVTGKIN
- testMethodNotes: BLI (Octet), antibody on AHC sensor, His-tagged hCD36.ECD in solution, 1:1 fit
recordedMetric: Kd (nM)
The reply should contain only the number, in nM.

117_30DE (IgG4) (antibody, V domains shown, Human IgG4-S228P-FALA, kappa) VH: EVQLVESGGGLVQPGGSLRLSCAASGFTIDSFGIHWVRQAPGKGLEWVAWIAPYGGETYYADSVKGRFTISADTSKNTAYLQMNSLRAEDTAVYYCARSFFGYFDYWGQGTLVTVSS VL: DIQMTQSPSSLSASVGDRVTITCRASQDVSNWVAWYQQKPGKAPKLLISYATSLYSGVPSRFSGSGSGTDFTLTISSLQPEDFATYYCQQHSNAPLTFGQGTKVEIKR :: 3.09

State its Kd for this binder: 117_57EE (IgG1) (antibody, V domains shown) VH: EVQLVESGGGLVQPGGSLRLSCAASGFTISSFGIHWVRQAPGKGLEWVAWIAPYGGEEYYADSVKGRFTISADTSKNTAYLQMNSLRAEDTAVYYCARSFFGYFDYWGQGTLVTVSS VL: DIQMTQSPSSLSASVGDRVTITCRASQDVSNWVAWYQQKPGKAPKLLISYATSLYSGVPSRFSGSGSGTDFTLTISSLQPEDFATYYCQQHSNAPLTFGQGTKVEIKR
4.27
